# IC50 per entry for Serine/threonine-protein kinase pim-1 (Homo sapiens)

Incoming: What reported IC50 corresponds to CN1C(=O)[C@@H](N2CCc3cn(CC4CCS(=O)(=O)CC4)nc3C2=O)COc2ccccc21 [TP-030n] on Serine/threonine-protein kinase pim-1 (Homo sapiens)?
Outgoing: 1000 nM

Consider the additional molecule presented here.
Incoming: What reported IC50 corresponds to CN1C(=O)[C@@H](N2CCc3cn(Cc4ccccc4)nc3C2=O)COc2ccccc21 on Serine/threonine-protein kinase pim-1 (Homo sapiens)?
Outgoing: 1000 nM

====

# pIC50 per entry for Serine/threonine-protein kinase 32C (Homo sapiens, UniProt Q86UX6)
Remember, pIC50 is on a log scale: it is -log10 of the molar concentration.

Incoming: What reported pIC50 corresponds to CN1C(=O)[C@@H](N2CCc3cn(CC4CCS(=O)(=O)CC4)nc3C2=O)COc2ccccc21 [TP-030n] on Serine/threonine-protein kinase 32C (Homo sapiens, UniProt Q86UX6)?
Outgoing: 6.00

Consider the additional molecule presented here.
Incoming: What reported pIC50 corresponds to CN1C(=O)[C@@H](N2CCc3cn(Cc4ccccc4)nc3C2=O)COc2ccccc21 on Serine/threonine-protein kinase 32C (Homo sapiens, UniProt Q86UX6)?
Outgoing: 6.00

====

TARGET OR TEST SYSTEM: Tyrosine-protein kinase Fyn (Homo sapiens)
Sequence (P06241 whole entry): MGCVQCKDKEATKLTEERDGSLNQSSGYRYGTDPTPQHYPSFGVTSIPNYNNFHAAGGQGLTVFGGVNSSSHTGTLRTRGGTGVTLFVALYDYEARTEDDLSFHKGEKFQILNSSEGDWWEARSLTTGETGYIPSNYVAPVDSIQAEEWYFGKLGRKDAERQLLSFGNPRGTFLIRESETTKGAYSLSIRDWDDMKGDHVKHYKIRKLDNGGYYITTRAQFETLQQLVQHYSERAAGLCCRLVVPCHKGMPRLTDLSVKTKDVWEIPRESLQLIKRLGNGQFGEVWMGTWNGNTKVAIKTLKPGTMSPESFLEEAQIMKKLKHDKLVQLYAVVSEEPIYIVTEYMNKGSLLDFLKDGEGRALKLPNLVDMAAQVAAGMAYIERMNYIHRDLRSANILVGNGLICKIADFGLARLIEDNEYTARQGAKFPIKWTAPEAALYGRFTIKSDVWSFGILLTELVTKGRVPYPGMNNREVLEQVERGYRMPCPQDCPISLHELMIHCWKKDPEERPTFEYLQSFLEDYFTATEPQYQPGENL
VALUE KIND: pIC50
Remember, pIC50 is on a log scale: it is -log10 of the molar concentration.

Incoming: Please look up its pIC50: CN1C(=O)[C@@H](N2CCc3cn(CC4CCS(=O)(=O)CC4)nc3C2=O)COc2ccccc21 [TP-030n]
Outgoing: 6.00

====

TARGET OR TEST SYSTEM: Mitogen-activated protein kinase kinase kinase 14 (Homo sapiens)
Sequence (Q99558 whole entry): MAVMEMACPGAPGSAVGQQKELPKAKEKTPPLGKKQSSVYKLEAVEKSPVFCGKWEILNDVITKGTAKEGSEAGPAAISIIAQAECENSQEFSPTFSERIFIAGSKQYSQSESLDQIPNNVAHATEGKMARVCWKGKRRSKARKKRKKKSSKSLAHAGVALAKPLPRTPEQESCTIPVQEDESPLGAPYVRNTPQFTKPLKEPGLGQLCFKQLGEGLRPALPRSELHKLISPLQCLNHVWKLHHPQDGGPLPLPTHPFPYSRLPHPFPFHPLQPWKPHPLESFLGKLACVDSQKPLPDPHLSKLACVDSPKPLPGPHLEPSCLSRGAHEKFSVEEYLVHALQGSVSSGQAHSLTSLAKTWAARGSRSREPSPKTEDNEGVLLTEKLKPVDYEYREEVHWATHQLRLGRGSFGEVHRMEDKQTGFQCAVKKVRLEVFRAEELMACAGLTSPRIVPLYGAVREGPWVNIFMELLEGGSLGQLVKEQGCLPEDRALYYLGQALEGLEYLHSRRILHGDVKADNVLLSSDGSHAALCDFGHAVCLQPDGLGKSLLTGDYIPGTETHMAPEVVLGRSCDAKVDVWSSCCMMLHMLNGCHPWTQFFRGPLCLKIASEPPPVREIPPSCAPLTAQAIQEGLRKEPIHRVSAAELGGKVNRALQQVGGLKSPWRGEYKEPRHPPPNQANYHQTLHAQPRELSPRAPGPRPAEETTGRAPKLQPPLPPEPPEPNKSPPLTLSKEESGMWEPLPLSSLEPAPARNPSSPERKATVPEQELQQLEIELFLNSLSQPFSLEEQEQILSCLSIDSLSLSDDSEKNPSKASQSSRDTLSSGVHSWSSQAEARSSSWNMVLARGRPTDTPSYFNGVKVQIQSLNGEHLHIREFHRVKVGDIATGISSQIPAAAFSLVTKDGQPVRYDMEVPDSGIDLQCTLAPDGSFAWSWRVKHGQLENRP
PROTOCOL NOTES: NIK(M314LGP1) Takeda global kinase panel
VALUE KIND: IC50 (nM)
Please state the figure in nM; there is no need to write the unit.

Incoming: What reported IC50 corresponds to CN1C(=O)[C@@H](N2CCc3cn(Cc4ccccc4)nc3C2=O)COc2ccccc21 [TP-030-1] on Mitogen-activated protein kinase kinase kinase 14 (Homo sapiens)?
Outgoing: 1000

Consider the additional compound presented here.
Incoming: What reported IC50 corresponds to CN1C(=O)[C@@H](N2CCc3cn(CC4CCS(=O)(=O)CC4)nc3C2=O)COc2ccccc21 [TP-030n] on Mitogen-activated protein kinase kinase kinase 14 (Homo sapiens)?
Outgoing: 1000

====

TARGET OR TEST SYSTEM: Calcium/calmodulin-dependent protein kinase type II subunit beta (Homo sapiens)
Sequence (Q13554 whole entry): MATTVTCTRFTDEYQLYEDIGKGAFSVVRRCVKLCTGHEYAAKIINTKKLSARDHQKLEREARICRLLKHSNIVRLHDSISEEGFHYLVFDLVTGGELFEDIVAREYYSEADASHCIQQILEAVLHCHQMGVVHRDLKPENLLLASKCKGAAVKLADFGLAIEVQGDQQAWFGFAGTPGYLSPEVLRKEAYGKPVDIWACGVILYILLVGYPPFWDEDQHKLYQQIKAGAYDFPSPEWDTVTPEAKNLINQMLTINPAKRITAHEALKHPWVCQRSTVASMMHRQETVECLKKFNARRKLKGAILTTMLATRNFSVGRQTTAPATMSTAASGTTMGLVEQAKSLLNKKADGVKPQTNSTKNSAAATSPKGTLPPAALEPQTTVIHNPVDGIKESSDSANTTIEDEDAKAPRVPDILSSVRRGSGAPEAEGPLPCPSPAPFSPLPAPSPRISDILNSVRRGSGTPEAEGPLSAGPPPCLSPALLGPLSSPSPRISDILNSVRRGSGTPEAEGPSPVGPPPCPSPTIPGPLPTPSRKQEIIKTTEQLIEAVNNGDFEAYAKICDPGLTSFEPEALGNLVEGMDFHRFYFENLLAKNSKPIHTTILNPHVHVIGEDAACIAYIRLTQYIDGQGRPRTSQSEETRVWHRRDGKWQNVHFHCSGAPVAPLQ
PROTOCOL NOTES: CaMK2beta(CA2BCGT1) Takeda global kinase panel
VALUE KIND: pIC50
Remember, pIC50 is on a log scale: it is -log10 of the molar concentration.

Incoming: Please look up its pIC50: CN1C(=O)[C@@H](N2CCc3cn(CC4CCS(=O)(=O)CC4)nc3C2=O)COc2ccccc21 [TP-030n]
Outgoing: 6.00

====

# pIC50 per entry for Protein-tyrosine kinase 2-beta (Homo sapiens, UniProt Q14289)
Remember, pIC50 is on a log scale: it is -log10 of the molar concentration.

Incoming: What reported pIC50 corresponds to CN1C(=O)[C@@H](N2CCc3cn(CC4CCS(=O)(=O)CC4)nc3C2=O)COc2ccccc21 [TP-030n] on Protein-tyrosine kinase 2-beta (Homo sapiens, UniProt Q14289)?
Outgoing: 6.00

Consider the additional compound presented here.
Incoming: What reported pIC50 corresponds to CN1C(=O)[C@@H](N2CCc3cn(Cc4ccccc4)nc3C2=O)COc2ccccc21 on Protein-tyrosine kinase 2-beta (Homo sapiens, UniProt Q14289)?
Outgoing: 6.00

====

TARGET OR TEST SYSTEM: UniProt O75676
Sequence (O75676 whole entry): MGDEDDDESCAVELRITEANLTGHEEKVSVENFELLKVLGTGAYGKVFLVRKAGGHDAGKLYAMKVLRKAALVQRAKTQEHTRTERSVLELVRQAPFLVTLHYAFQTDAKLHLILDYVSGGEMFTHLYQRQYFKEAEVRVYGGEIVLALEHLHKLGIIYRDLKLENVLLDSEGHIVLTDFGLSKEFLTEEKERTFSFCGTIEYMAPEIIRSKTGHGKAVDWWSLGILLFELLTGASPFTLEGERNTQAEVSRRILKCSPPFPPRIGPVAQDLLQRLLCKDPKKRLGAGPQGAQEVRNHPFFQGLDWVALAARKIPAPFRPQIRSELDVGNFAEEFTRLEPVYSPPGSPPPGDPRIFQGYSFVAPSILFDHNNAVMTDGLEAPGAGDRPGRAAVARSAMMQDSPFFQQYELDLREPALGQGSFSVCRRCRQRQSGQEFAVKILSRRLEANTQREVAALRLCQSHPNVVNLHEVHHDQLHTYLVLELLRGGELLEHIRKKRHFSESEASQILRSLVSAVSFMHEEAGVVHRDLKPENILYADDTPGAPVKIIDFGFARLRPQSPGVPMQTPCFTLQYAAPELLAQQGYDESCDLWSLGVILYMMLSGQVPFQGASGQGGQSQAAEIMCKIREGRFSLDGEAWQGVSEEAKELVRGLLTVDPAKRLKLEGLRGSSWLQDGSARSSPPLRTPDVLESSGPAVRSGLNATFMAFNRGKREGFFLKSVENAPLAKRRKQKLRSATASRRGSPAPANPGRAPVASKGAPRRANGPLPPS
PROTOCOL NOTES: MSK2(R6A4LGRJ) Takeda global kinase panel
Below is a list of entries, each paired with its recorded pIC50 value.
Remember, pIC50 is on a log scale: it is -log10 of the molar concentration.

Incoming: Please look up its pIC50: CN1C(=O)[C@@H](N2CCc3cn(Cc4ccccc4)nc3C2=O)COc2ccccc21 [TP-030-1]
Outgoing: 6.00

---
Incoming: Please look up its pIC50: CN1C(=O)[C@@H](N2CCc3cn(CC4CCS(=O)(=O)CC4)nc3C2=O)COc2ccccc21 [TP-030n]
Outgoing: 6.00

====

# IC50 per entry for Insulin-like growth factor 1 receptor (Homo sapiens)
Please state the figure in nM; there is no need to write the unit.

Incoming: What reported IC50 corresponds to CN1C(=O)[C@@H](N2CCc3cn(CC4CCS(=O)(=O)CC4)nc3C2=O)COc2ccccc21 [TP-030n] on Insulin-like growth factor 1 receptor (Homo sapiens)?
Outgoing: 1000

Consider the additional molecule presented here.
Incoming: What reported IC50 corresponds to CN1C(=O)[C@@H](N2CCc3cn(Cc4ccccc4)nc3C2=O)COc2ccccc21 [TP-030-1] on Insulin-like growth factor 1 receptor (Homo sapiens)?
Outgoing: 1000

====

Below is a list of entries, each paired with its recorded pIC50 value.
TARGET OR TEST SYSTEM: Casein kinase I isoform gamma-3 (Homo sapiens)
PROTOCOL NOTES: CK1gamma3(C1G3LGI5) Takeda global kinase panel
Remember, pIC50 is on a log scale: it is -log10 of the molar concentration.

Incoming: Please look up its pIC50: CN1C(=O)[C@@H](N2CCc3cn(Cc4ccccc4)nc3C2=O)COc2ccccc21 [TP-030-1]
Outgoing: 6.00

Consider the additional compound presented here.
Incoming: Please look up its pIC50: CN1C(=O)[C@@H](N2CCc3cn(CC4CCS(=O)(=O)CC4)nc3C2=O)COc2ccccc21 [TP-030n]
Outgoing: 6.00

====

TARGET OR TEST SYSTEM: Mitogen-activated protein kinase kinase kinase kinase 1 (Homo sapiens)
Sequence (Q92918 whole entry): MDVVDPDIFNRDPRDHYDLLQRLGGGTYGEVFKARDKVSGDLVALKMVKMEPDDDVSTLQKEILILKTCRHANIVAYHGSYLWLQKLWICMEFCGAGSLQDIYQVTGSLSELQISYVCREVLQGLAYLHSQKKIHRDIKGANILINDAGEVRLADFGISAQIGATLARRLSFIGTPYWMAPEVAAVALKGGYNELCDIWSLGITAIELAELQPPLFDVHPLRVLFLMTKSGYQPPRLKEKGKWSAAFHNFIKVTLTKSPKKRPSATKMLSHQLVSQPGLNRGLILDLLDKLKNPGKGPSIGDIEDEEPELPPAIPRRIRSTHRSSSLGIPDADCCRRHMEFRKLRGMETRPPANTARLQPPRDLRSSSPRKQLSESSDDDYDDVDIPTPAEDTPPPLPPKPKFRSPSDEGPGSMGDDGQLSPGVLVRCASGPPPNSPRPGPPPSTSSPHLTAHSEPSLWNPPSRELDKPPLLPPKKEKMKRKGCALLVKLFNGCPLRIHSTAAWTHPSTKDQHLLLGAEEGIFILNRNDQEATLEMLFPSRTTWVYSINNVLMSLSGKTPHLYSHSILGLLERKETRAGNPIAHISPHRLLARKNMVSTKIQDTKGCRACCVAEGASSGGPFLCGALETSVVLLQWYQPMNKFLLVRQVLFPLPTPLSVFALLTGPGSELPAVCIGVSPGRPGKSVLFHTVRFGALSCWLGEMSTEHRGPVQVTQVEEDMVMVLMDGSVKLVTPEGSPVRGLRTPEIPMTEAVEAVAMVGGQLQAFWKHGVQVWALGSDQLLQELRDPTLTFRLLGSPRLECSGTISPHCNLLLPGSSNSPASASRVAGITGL
PROTOCOL NOTES: HPK1(M4K1LGY1) Takeda global kinase panel
Below is a list of entries, each paired with its recorded IC50 value.
Please state the figure in nM; there is no need to write the unit.

Incoming: Please look up its IC50: CN1C(=O)[C@@H](N2CCc3cn(CC4CCS(=O)(=O)CC4)nc3C2=O)COc2ccccc21 [TP-030n]
Outgoing: 1000

---
Incoming: Please look up its IC50: CN1C(=O)[C@@H](N2CCc3cn(Cc4ccccc4)nc3C2=O)COc2ccccc21
Outgoing: 1000

====

TARGET OR TEST SYSTEM: Serine/threonine-protein kinase N1 (Homo sapiens)
Sequence (Q16512 whole entry): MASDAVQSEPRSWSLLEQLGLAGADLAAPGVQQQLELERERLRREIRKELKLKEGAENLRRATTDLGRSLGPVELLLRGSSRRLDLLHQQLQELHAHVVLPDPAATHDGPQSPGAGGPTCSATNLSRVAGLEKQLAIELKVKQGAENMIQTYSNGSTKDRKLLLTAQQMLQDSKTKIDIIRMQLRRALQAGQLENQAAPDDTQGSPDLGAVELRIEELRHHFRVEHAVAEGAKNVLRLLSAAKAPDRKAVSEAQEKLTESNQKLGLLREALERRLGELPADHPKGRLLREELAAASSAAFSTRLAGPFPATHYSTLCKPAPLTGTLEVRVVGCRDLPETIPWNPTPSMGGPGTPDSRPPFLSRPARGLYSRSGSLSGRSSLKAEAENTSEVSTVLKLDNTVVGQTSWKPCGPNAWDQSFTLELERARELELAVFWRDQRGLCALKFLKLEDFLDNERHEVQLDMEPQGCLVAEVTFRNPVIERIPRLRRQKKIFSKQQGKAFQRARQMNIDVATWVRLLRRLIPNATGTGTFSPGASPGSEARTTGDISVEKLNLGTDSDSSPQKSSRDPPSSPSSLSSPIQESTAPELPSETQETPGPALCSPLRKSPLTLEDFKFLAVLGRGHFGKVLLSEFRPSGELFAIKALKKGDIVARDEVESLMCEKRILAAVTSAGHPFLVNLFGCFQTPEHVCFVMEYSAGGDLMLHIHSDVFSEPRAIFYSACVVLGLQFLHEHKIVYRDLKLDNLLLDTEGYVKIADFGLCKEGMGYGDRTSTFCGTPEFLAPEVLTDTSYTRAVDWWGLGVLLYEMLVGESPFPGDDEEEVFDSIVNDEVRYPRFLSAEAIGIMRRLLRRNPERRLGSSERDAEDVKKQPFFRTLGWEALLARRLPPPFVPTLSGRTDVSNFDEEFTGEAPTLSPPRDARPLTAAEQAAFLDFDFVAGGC
Below is a list of entries, each paired with its recorded pIC50 value.
Remember, pIC50 is on a log scale: it is -log10 of the molar concentration.

Incoming: Please look up its pIC50: CN1C(=O)[C@@H](N2CCc3cn(CC4CCS(=O)(=O)CC4)nc3C2=O)COc2ccccc21 [TP-030n]
Outgoing: 6.00

---
Incoming: Please look up its pIC50: CN1C(=O)[C@@H](N2CCc3cn(Cc4ccccc4)nc3C2=O)COc2ccccc21
Outgoing: 6.00

====

Below is a list of entries, each paired with its recorded pIC50 value.
TARGET OR TEST SYSTEM: Serine/threonine-protein kinase Sgk2 (Homo sapiens, UniProt Q9HBY8)
Remember, pIC50 is on a log scale: it is -log10 of the molar concentration.

Incoming: Please look up its pIC50: CN1C(=O)[C@@H](N2CCc3cn(Cc4ccccc4)nc3C2=O)COc2ccccc21
Outgoing: 6.00

Consider the additional compound presented here.
Incoming: Please look up its pIC50: CN1C(=O)[C@@H](N2CCc3cn(CC4CCS(=O)(=O)CC4)nc3C2=O)COc2ccccc21 [TP-030n]
Outgoing: 6.00

====

Below is a list of entries, each paired with its recorded IC50 value.
TARGET OR TEST SYSTEM: Death-associated protein kinase 3 (Homo sapiens)
Please state the figure in µM; there is no need to write the unit.

Incoming: What reported IC50 corresponds to CN1C(=O)[C@@H](N2CCc3cn(Cc4ccccc4)nc3C2=O)COc2ccccc21 on Death-associated protein kinase 3 (Homo sapiens)?
Outgoing: 1

Consider the additional molecule presented here.
Incoming: What reported IC50 corresponds to CN1C(=O)[C@@H](N2CCc3cn(CC4CCS(=O)(=O)CC4)nc3C2=O)COc2ccccc21 [TP-030n] on Death-associated protein kinase 3 (Homo sapiens)?
Outgoing: 1

====

Target protein (sequence): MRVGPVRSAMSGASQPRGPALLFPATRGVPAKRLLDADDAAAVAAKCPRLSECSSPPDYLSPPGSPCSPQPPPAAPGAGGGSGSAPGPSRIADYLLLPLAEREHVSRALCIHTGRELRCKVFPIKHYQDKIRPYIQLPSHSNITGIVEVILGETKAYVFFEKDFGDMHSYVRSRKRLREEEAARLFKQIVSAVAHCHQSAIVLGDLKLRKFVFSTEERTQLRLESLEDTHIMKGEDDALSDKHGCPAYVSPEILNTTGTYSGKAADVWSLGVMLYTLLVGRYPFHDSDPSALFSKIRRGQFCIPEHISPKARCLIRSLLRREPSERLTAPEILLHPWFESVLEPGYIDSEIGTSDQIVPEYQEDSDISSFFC
VALUE KIND: IC50 (nM)
Please state the figure in nM; there is no need to write the unit.

Incoming: Please look up its IC50: CN1C(=O)[C@@H](N2CCc3cn(CC4CCS(=O)(=O)CC4)nc3C2=O)COc2ccccc21 [TP-030n]
Outgoing: 1000
